# System Under Test: UniProt:Q13285
# Test Method Notes: inhibition of SF-1 LBD-driven luciferase – cell-based, CHO-K1, Gal4-SF-1 LBD, luciferase luminescence, counter-screen for RORA inhibitor project, dose response (AID 611)
Measure: IC50 (µM)

Smiles Record: Cc1cccc(NC(=O)Nc2ccc(C#N)cc2)n1
Measure: IC50
Value Reported: 6.32
//
Smiles Record: CN1CCN(C(=O)COc2ccc(-c3nc4ccccc4s3)cc2)CC1
Measure: IC50
Value Reported: 5.28

I. CCN(CC)c1ccc2cc(NC(=O)CCC(=O)O)c(=O)oc2c1
II. COc1cccc2c1C(=O)c1c(O)c3c(c(O)c1C2=O)C[C@@](O)(C(C)=O)C[C@@H]3O[C@H]1C[C@H](N)[C@H](O)[C@H](C)O1
III. c1ccc(-c2cccc(-c3ccccn3)n2)nc1
**Query** Hello, I need these entries ordered by IC50, highest reading first. Thanks! Sort and list the labels as requested.
**Result** I, III, II
(I: 6.07 µM, III: 2.81 µM, II: 0.409 µM)

====

# System Under Test: Steroidogenic factor 1 (Homo sapiens, UniProt Q13285)
# Sequence (Q13285 whole entry, the tested form may be a part): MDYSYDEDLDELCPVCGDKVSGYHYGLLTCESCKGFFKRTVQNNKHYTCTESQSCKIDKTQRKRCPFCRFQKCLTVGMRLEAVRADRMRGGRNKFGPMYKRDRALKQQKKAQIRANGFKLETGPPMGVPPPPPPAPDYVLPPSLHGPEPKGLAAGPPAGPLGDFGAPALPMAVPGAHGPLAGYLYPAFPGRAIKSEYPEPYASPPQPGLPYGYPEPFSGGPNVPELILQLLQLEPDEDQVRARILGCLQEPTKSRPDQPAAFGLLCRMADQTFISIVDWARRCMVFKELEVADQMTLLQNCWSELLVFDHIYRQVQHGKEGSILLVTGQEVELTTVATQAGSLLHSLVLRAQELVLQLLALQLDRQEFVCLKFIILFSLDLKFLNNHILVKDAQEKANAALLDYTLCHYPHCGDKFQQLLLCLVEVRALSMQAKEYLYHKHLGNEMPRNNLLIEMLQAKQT
# Test Method Notes: inhibition of SF-1 LBD-driven luciferase – cell-based, CHO-K1, Gal4-SF-1 LBD, luciferase luminescence, counter-screen for RORA inhibitor project, dose response (AID 611)
# Condition Description: inactive by the depositor's call
Measure: IC50 (µM)

Compound: CS(=O)(=O)c1nc(-c2ccco2)cc(C(F)(F)F)n1 [MLS000044646]
Value Reported: 10.8

1. Cc1cccc2cc3c(nc12)S/C(=N\CC1CCCO1)N(Cc1ccco1)C3 (stereo not drawn)
2. Cc1nc2sccn2c1-c1csc(NCc2ccccc2)n1
**Query** Could you tell me which of 1 and 2 has the lower IC50 reading? Kindly give the label for the entry you pick.
**Result** 2

====

# System Under Test: UniProt:Q13285
# Test Method Notes: inhibition of SF-1 LBD-driven luciferase – cell-based, CHO-K1, Gal4-SF-1 LBD, luciferase luminescence, counter-screen for RORA inhibitor project, dose response (AID 611)
# Condition Description: inactive by the depositor's call
pIC50: −log10 of the molar value.
Measure: pIC50

Below, each entry is followed by its recorded pIC50 result.
Compound: COc1cccc(OC)c1C1=NCC(=O)Nc2c1oc1ccc(Br)cc21
pIC50: 4.81
//
Compound: CCCOc1ccccc1C1CC(=O)Nc2cc3c(cc21)OCCO3 (stereo unspecified)
pIC50: 4.97
//
Compound: Cc1nc(NC(C)c2ccccc2)c2oc3ccccc3c2n1 (stereo unspecified)
pIC50: 4.64

P. c1ccc(CN2CCN(c3ncnc4c3[nH]c3ccccc34)CC2)cc1
Q. COc1cc2c(cc1OC)C(C)N(C(=O)c1cc3ccccc3o1)CC2 (stereo unspecified)
**Query** Dear colleague, could you let me know whether P or Q has the lower recorded pIC50? Thanks. Answer by quoting the chosen item's label.
**Result** Q

====

# System Under Test: Steroidogenic factor 1 (Homo sapiens)
# Test Method Notes: inhibition of SF-1 LBD-driven luciferase – cell-based, CHO-K1, Gal4-SF-1 LBD, luciferase luminescence, counter-screen for RORA inhibitor project, dose response (AID 611)
pIC50: −log10 of the molar value.
Measure: pIC50

Examples with their reported pIC50 follow.
Compound: N#CC(C#N)=c1ccc2c(c1)NC1(CCCCC1)N=2
Measure: pIC50
Value Reported: 5.04

Compound: CC(=O)c1sc(NC(=O)C2(F)C(F)(F)C(F)(F)C(F)(F)C(F)(F)C2(F)F)nc1C [MLS000040071]
Measure: pIC50
Value Reported: 5.17

Compound: O=c1cc(-c2c(F)c(F)c(F)c(F)c2F)oc2c(F)c(F)c(F)c(F)c12
Measure: pIC50
Value Reported: 5.32

Compound: Nc1ccc(-c2nc3c(Cl)cc(N)cc3[nH]2)cc1 [MLS000034140]
Measure: pIC50
Value Reported: 5.26

Compound: Cc1cc(-n2c(C)cc(C(=O)CSc3ncnc4ccccc34)c2C)no1
Measure: pIC50
Value Reported: 5.22

A. Cc1ccc(-c2nsc3c(N4CCC(C(N)=O)CC4)ncnc23)cc1
B. c1ccc2nc(-c3nc4ccccc4[nH]3)ccc2c1 [SMR000008748]
C. Cc1cc(C=Nn2cnnc2)c(C)n1-c1ccc(OCc2ccc(F)cc2)cc1 [MLS000112167]
**Query** List by increasing pIC50. Please reply with the labels ordered as requested. Many thanks.
**Result** B, C, A
(B: 5.14, C: 5.47, A: 5.82)

P. COc1cccc2c1C(=O)c1c(O)c3c(c(O)c1C2=O)C[C@@](O)(C(=O)CO)C[C@@H]3O[C@H]1C[C@H](N)[C@H](O)[C@H](C)O1 [MLS000028393]
Q. CC(C)NCC(O)Cn1c2c(c3ccccc31)CCc1c-2cnn1-c1ccccc1 (stereo not given)
R. O=C(Nc1nc2cc3c(cc2s1)OCO3)C1=COCCO1 [MLS000103798]
**Query** Number of compounds to sort: 3. Sort criterion: pIC50, ascending. # answer = labels listed in requested order
**Result** Q, R, P
(Q: 5.06, R: 5.38, P: 5.93)

P. COc1ccc(OC)c(Nc2nc(-c3ccc(O)c(O)c3)cs2)c1
Q. CCCCOc1ncnc2c1[nH]c1ccc(F)cc12
**Query** Compare P and Q and name the one whose reported pIC50 is smaller. Bench note: the answer is the label of the chosen record.
**Result** P

====

# System Under Test: Steroidogenic factor 1 (Homo sapiens, UniProt Q13285)
# Test Method Notes: inhibition of SF-1 LBD-driven luciferase – cell-based, CHO-K1, Gal4-SF-1 LBD, luciferase luminescence, counter-screen for RORA inhibitor project, dose response (AID 611)
pIC50: −log10 of the molar value.
Measure: pIC50

Compound: COc1ccc(-c2cc3nc4n(c(=O)c3s2)CCOC4)cc1
System Under Test: Steroidogenic factor 1 (Homo sapiens, UniProt Q13285)
pIC50: 5.11

A. O=C(OC1CCOC1=O)c1ccc(-c2nc3ccccc3s2)s1 (stereo unspecified)
B. CCN1C=CC(=C2C(=O)c3ccccc3C2=O)C=C1
C. CCOC(=O)c1[n-]c2ccccc2c1[N+]#N
**Query** Arrange items by their pIC50 values in increasing order. Please list the labels in the order you were asked to rank them.
**Result** C, A, B
(C: 4.88, A: 5.29, B: 5.87)

====

# System Under Test: Steroidogenic factor 1 (Homo sapiens, UniProt Q13285)
# Test Method Notes: inhibition of SF-1 LBD-driven luciferase – cell-based, CHO-K1, Gal4-SF-1 LBD, luciferase luminescence, counter-screen for RORA inhibitor project, dose response (AID 611)
pIC50: −log10 of the molar value.
Measure: pIC50

Record excerpt, results attached:
Compound: COc1cc(OC)cc(-c2cc3nc(C)c(CCC(=O)O)c(C)n3n2)c1
System Under Test: Steroidogenic factor 1 (Homo sapiens, UniProt Q13285)
pIC50: 6.13

Compound: c1ccc(-c2cn3c4c(sc3n2)CCCC4)cc1
System Under Test: Steroidogenic factor 1 (Homo sapiens, UniProt Q13285)
pIC50: 5.37

Compound: C=CS(=O)(=O)c1ccc(Oc2ccc(S(=O)(=O)C=C)cc2)cc1
System Under Test: Steroidogenic factor 1 (Homo sapiens, UniProt Q13285)
pIC50: 5.28

1. O=C(Nc1ccc(N2CCOCC2)cc1)c1cnsn1 [MLS000063695]
2. CC(=O)Nc1ccccc1OCC(=O)c1cc(C)n(Cc2cccs2)c1C [MLS000056239]
**Query** Look at 1 and 2 . Which one has the lower recorded pIC50 number? Selection: enter the item's label.
**Result** 1

====

# System Under Test: Steroidogenic factor 1 (Homo sapiens)
# Test Method Notes: inhibition of SF-1 LBD-driven luciferase – cell-based, CHO-K1, Gal4-SF-1 LBD, luciferase luminescence, counter-screen for RORA inhibitor project, dose response (AID 611)
Measure: IC50 (µM)

Molecule: CCc1ccc(-c2nnn(CCC(=O)OC)n2)cc1
IC50 / µM: 6.34

Molecule: CC(=O)Nc1ccc(SCC(=O)c2cc(C)n(Cc3cccs3)c2C)cc1
IC50 / µM: 4.41

Molecule: Cn1ncnc2c(=O)n(C)c(=O)nc1-2
IC50 / µM: 0.633

Molecule: [H][C@@]12C[N@@](CCc3c([nH]c4ccccc34)[C@@](C(=O)OC)(c3cc4c(cc3OC)N(C=O)[C@]3([H])[C@]45CC[N@@]4CC=C[C@@](CC)([C@@H](OC(C)=O)[C@]3(O)C(=O)OC)[C@]45[H])C1)C[C@](O)(CC)C2
IC50 / µM: 2.11

Molecule: COc1ccc2c(c1)[nH]c1c(N3CCN(Cc4ccc5c(c4)OCO5)CC3)ncnc12
IC50 / µM: 7.25

Molecule: CCNC(=O)CCc1nc(-c2ccc(C(C)(C)C)cc2)no1
IC50 / µM: 0.0417

Molecule: COC(=O)C1C(=CN2CCCc3ccccc32)NC(=O)NC1c1ccc(F)cc1 (configuration not stated)
IC50 / µM: 6.66

Molecule: COc1ccccc1-n1nnnc1S(=O)(=O)Cc1ccc(Cl)cc1
IC50 / µM: 7.09

P. c1coc(CNc2ncnc3ccccc23)c1
Q. COc1cc(CSc2nnnn2-c2ccc(C)cc2)cc(OC)c1OC
**Query** Lab note: check whether P or Q has the lower measured IC50. Field: selected label. Fill in the label of the entry you choose.
**Result** Q
(Q: 4.52 µM, P: 17.3 µM)
